Attribution: patent US12213973B2

target: bNOS WT (bsNOS) (Bacillus subtilis); assay: IC50 determination with bBidomain construct, bNOS WT; assay type: biochemical; parameters: YKuN (fusion partner); made in house; host or cells: E. coli BL21 (DE3)
Sequence (O34453 other isoform, or with tags, fused parts or gaps): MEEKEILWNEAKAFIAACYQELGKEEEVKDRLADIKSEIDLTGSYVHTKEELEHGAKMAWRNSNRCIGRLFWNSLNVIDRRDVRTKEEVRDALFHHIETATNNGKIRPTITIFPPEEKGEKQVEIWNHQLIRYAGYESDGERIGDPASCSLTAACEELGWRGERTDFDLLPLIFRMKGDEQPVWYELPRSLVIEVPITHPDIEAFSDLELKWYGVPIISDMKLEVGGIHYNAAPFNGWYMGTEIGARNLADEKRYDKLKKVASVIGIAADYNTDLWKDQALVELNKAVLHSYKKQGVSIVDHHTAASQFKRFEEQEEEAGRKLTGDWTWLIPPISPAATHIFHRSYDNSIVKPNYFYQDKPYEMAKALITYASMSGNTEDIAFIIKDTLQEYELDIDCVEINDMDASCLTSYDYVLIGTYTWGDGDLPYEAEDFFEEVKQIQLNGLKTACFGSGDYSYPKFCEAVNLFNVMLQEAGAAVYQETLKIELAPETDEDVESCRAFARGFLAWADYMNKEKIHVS
Rule: IC50 below 20 µM gives MET. Equal to or above 20 µM gives NOT MET.

# compound-smiles, classification
records = [
    ("Nc1cccc(CNCc2cccc(OCc3ccc4ccc(N)nc4c3)c2)n1", "NOT MET"),
]

Req: Does this compound meet the criterion IC50 < 20 µM? Nc1ccc2ccc(COc3cccc(CNCc4ccccn4)c3)cc2n1
Resp: NOT MET

Req: Does this compound meet the criterion IC50 < 20 µM? Nc1cccc(CCCCNCc2cccc(OCc3ccc4ccc(N)nc4c3)c2)n1
Resp: MET

Req: Does this compound meet the criterion IC50 < 20 µM? Nc1cccc(CCc2cccc(OCc3ccc4ccc(N)nc4c3)c2)n1
Resp: NOT MET

Req: Does this compound meet the criterion IC50 < 20 µM? Nc1cccc(CNCCOc2cccc(OCc3ccc4ccc(N)nc4c3)c2)n1
Resp: NOT MET

Req: Does this compound meet the criterion IC50 < 20 µM? Nc1ccc2ccc(COc3cccc(CNCCc4ccccn4)c3)cc2n1
Resp: NOT MET

----------
Listing of recorded isoform selectivity heNOS/bNOS (in parentheses) by entry.
target: human endothelial NOS (heNOS) (Homo sapiens, UniProt P29474); assay: IC50 determination, heNOS; type: biochemical; details: ratio of IC50 heNOS to IC50 bNOS WT
# answer = number (no unit)

Guide cases for isoform selectivity heNOS/bNOS (in parentheses), answers given:
# compound, readout-value
rows = [
    ("Nc1cccc(CNCCOc2cccc(OCc3ccc4ccc(N)nc4c3)c2)n1 [Compound 9]", 19),
    ("Nc1cccc(CCCCNCc2cccc(OCc3ccc4ccc(N)nc4c3)c2)n1 [Compound 8]", 21),
    ("Nc1cccc(CNCc2cccc(OCc3ccc4ccc(N)nc4c3)c2)n1 [Compound 5]", 11),
]

Now for another entry.
Req: Request the reported isoform selectivity heNOS/bNOS (in parentheses) associated with Nc1ccc2ccc(COc3cccc(CNCc4ccccn4)c3)cc2n1 [Compound 4]
Resp: 12

----------
target: human eNOS (heNOS) (Homo sapiens, UniProt P29474)
Listing of recorded pKi by entry.
Scale for pKi: -log10 of concentration given in mol/L; no unit attached.

# molecule, pKi
measured = [
    ("Nc1ccc2ccc(COc3cccc(CNCc4ccccn4)c3)cc2n1 [PW-I-101]", 4.70),
    ("Nc1cccc(CNCCOc2cccc(OCc3cccc(N)n3)c2)n1 [PW-III-25]", 3.47),
]

Now for another entry.
Req: Request the reported pKi associated with Nc1cccc(CCCCNCc2cccc(OCc3ccc4ccc(N)nc4c3)c2)n1 [PW-I-103]
Resp: 5.71

----------
Listing of recorded Ki by entry.
biological target: human nNOS (hnNOS) (Homo sapiens)
Hi, when you answer, please include the unit after the number. Thanks!

# compound-smiles, result-type, readout-value
data = [
    ("Nc1ccc2ccc(COc3cccc(CNCc4ccccn4)c3)cc2n1", "Ki", "22 nM"),
]

Now for another entry.
Req: Request the reported Ki associated with Nc1cccc(CCCCNCc2cccc(OCc3ccc4ccc(N)nc4c3)c2)n1
Resp: 38 nM

----------
molecular target: bNOS (I218V) (Bacillus subtilis, UniProt O34453, I218V); assay: Imidazole displacement assay (spectral binding, Ks), bNOS I218V mutant
Sequence (O34453 whole entry I218V): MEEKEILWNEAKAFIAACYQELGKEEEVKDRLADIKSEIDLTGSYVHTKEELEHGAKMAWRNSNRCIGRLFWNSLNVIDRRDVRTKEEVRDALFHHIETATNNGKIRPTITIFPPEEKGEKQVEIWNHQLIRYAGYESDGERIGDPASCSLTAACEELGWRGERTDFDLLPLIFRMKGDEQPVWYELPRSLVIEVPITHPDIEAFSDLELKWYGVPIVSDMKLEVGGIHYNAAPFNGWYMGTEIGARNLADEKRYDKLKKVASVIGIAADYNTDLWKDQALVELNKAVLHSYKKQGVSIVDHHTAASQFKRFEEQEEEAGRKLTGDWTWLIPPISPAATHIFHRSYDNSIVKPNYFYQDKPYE
pKd: −log10 of the molar value.
Lab note: compare pKd against 5. Equal or greater, write label 1. Smaller, write label 0.

The following compounds have reported results that may help.
# compound, tested-system, classification
records = [
    ("Nc1cccc(CCCCNCc2cccc(OCc3ccc4ccc(N)nc4c3)c2)n1 [Compound 8]", "bNOS (I218V) (Bacillus subtilis, UniProt O34453, I218V)", "label 1"),
    ("Nc1ccc2ccc(COc3cccc(CNCc4ccccn4)c3)cc2n1 [Compound 4]", "bNOS (I218V) (Bacillus subtilis, UniProt O34453, I218V)", "label 0"),
    ("Nc1ccc2ccc(COc3cccc(CNCCc4ccccn4)c3)cc2n1 [Compound 6]", "bNOS (I218V) (Bacillus subtilis, UniProt O34453, I218V)", "label 0"),
    ("Nc1cccc(CNCc2cccc(OCc3ccc4ccc(N)nc4c3)c2)n1 [Compound 5]", "bNOS (I218V) (Bacillus subtilis, UniProt O34453, I218V)", "label 0"),
    ("Nc1cccc(CNCCOc2cccc(OCc3ccc4ccc(N)nc4c3)c2)n1 [Compound 9]", "bNOS (I218V) (Bacillus subtilis, UniProt O34453, I218V)", "label 0"),
]

API: the following record is the query input.
Req: Could you tell me if the measured pKd of Nc1cccc(CCc2cccc(OCc3ccc4ccc(N)nc4c3)c2)n1 [Compound 3] reaches 5 or more?
Resp: label 0
